study target: Hck (UniProt P08631)
Sequence (P08631 whole entry, looked up): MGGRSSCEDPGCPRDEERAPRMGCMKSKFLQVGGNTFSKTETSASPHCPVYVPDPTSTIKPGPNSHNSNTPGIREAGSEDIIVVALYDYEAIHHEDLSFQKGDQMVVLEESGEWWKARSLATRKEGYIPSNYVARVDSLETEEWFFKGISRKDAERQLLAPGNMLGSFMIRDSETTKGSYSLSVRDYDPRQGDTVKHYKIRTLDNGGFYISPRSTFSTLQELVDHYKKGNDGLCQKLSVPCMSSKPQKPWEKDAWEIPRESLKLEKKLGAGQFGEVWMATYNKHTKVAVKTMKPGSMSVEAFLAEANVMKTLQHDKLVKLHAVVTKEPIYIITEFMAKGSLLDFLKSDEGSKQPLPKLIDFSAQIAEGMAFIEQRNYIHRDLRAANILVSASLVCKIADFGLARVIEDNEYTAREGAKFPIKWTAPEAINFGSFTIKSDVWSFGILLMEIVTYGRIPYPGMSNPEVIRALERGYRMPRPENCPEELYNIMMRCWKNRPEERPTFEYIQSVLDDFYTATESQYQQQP
assay comment: phosphorylation enrichment, bacterial display (enrichment ratio); higher = better substrate or ligand; peptides without Tyr show the background;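 note: 11-residue human phosphosite peptides and single-mutation variants displayed on the E. coli surface, counted by deep sequencing, each peptide's frequency after selection divided by its frequency in the unselected input library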;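 note: frequency after pTyr selection over input frequency; kinase dosed for 20-30% of maximal phosphorylation in three min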
Rule: phosphorylation enrichment under 0.5 gives Not satisfied, otherwise Satisfied.

sequence string | class
MKALGYFAVVT [OPA1_Y498] | Satisfied
NKEPRYQEDPP [TJP2_Y479] | Satisfied
DGQSVYKLTDF [TBK1_Y153] | Satisfied

Hi team, for LSQAKYQIRYR [CRLF1_Y272_F268S] , is the recorded phosphorylation enrichment at or above 0.5?
Satisfied

Can you check KILPEYLSNWT [AIFM1_Y347] next?
Not satisfied

Can you check ESAAIYNPVIF [RHO_Y301_K296E_YF] next?
Satisfied

Can you check LGGSPYPGVPV [FGFR1_Y701] next?
Not satisfied

Can you check MALDIYRASFF [ALK_Y1278_R1275L_YF] next?
Satisfied

Can you check LNPLVYTLRNA [OR4C12_Y285_V283L] next?
Satisfied

Can you check LRYDVYGGENE [STOX1_Y610_E608D] next?
Satisfied

Can you check VCHELYNAIRD [PBRM1_Y54_T56A] next?
Satisfied

Can you check CSSPTYRDCLQ [LARGE2_Y682_R677C] next?
Not satisfied

Can you check VTQEQYELFCE [CBL_Y368_YF] next?
Satisfied
